# Target Desc: T1, cyno TIGIT on cells (cynomolgus macaque)
# T1 construct: whole, on cells; also called Expi293 cyno TIGIT over-expressing cells
# Procedure Text: FACS titration on cyno TIGIT OE Expi293 cells, binding site concentration; ± 95% CI; 'Fit: Good/Excellent'
This section presents binders with their documented pKd values.
In plain terms, pKd is the concentration in mol/L turned into minus its base-10 logarithm.

Please review the entries below; each comes with its answer.
1) CHA.9.547.7.H4(S241P) (antibody, human IgG4 S228P, kappa, V domains shown, humanized hybridoma anti-TIGIT antibody, human IgG4) VH: EVQLVESGGGLVQPGGSLRLSCAASGFTFSSYIMSWVRQAPGKGLEWVATISGGGTNTYYADSVKGRFTISRDNSKNTLYLQMNSLRAEDTAVYYCAKWLLSYYAMDYWGQGTLVTVSS VL: DIQMTQSPSSLSASVGDRVTITCRASQNINVWLTWYQQKPGKAPKLLIYKASKSHTGVPSRFSGSGSGTDFTLTISSLQPEDFATYYCQQGQSYPYTFGQGTKLEIKR
8.81
2) CHA.9.547.13.H4(S241P) (antibody, human IgG4, V domains shown, humanized hybridoma antibody, human IgG4 (S241P)) VH: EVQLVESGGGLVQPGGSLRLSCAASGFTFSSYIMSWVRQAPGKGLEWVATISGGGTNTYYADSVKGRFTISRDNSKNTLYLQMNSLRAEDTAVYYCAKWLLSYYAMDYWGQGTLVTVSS VL: DIQMTQSPSSLSASVGDRITITCRASQNINVWLSWYQQKPGKAPKLLIYKASKSHTGVPSRFSGSGSGTDFTLTISSLQPEDFATYYCQQGQSYPYTFGQGTKLEIK
8.78

Switching to the query record.
Ask | Given the binder CPA.9.083.H4(S241P) (antibody, human IgG4, V domains shown) VH: EVQLVETGGGLIQPGRSLRLSCAASGFTFSSYAMHWVRQAPGKGLEWVAVISYDGTPVYYADSVKGRFTISRDNSKNTLYLQMNSLRAEDTAVYYCARDPLPLHYYGMDVWGQGTTVTVSS VL: QSALTQPRSASGNPGQRVTISCSGSSSNMGRRPVNWYQQIPGTAPKLLIYSQNQRPSGVPDRFSGSQSGTSASLTISGLQSEDEAEYFCAVWDGDRRSLQLGGGTQLAVLG , what is its reported pKd?
Reply | 9.31

These measurements were taken from patent US20240075137A1.
